Tested on: CAKI-1 renal
procedureDetails: NCI tumour cell line growth inhibition, 48 h
The following compounds are listed with their measured TGI values.
measure: TGI

| compound | targetSystem | reportedResult |
| --- | --- | --- |
| CCCCCCCCCCCCCCCC(=O)OCC1OC(n2ccc(N)nc2=O)C(O)C1O (centres undefined) | CAKI-1 renal | > 100 µM |
| COc1ccccc1OC/C(N=Cc1ccncc1)=N/NC(=O)c1ccncc1 | CAKI-1 renal | > 100 µM |
| Cc1cnc2[nH]c(-c3ccccc3)cc(=O)c2c1 | CAKI-1 renal | > 100 µM |
| C=CCOn1c(C=C)nc2c(C)cccc21 | CAKI-1 renal | 5.25 µM |
| COc1cccc(N2N=C3c4ccccc4-n4c(nc5ccccc54)C3C2N)c1 (centres undefined) | CAKI-1 renal | > 100 µM |
| COc1cc([C@@H]2c3cc4c(cc3[C@@H](Nc3ccc(Cl)cc3C(=O)c3ccccc3Cl)[C@H]3COC(=O)[C@H]23)OCO4)cc(OC)c1OC | CAKI-1 renal | > 43.3 µM |
| CCC1(N2C(=O)c3c(F)c(F)c(F)c(F)c3C2=O)C(=O)NC(=O)N(c2ccccc2)C1=O (centres undefined) | CAKI-1 renal | 4 µM |
| C/C(=N/Nc1ccc([N+](=O)[O-])cc1[N+](=O)[O-])C(CC(C(=O)Nc1ccccc1C)/C(C)=N\Nc1ccc([N+](=O)[O-])cc1[N+](=O)[O-])C(=O)Nc1ccccc1C (centres undefined) | CAKI-1 renal | 30 µM |
| CCC1(O)CN(CCOC)[C@H]2C[C@@H]1C(=O)c1[nH]c3ccccc3c12 (some centres undefined) | CAKI-1 renal | > 100 µM |
